Molecular target: T1, low-density lipoprotein receptor-related protein (LRP), purified (human, UniProt Q07954 20-4544)
T1 construct: mature; also called low density lipoprotein receptor-related protein/α2-macroglobulin receptor; LRP receptor
T1 sequence (Q07954 20-4544, form in doubt): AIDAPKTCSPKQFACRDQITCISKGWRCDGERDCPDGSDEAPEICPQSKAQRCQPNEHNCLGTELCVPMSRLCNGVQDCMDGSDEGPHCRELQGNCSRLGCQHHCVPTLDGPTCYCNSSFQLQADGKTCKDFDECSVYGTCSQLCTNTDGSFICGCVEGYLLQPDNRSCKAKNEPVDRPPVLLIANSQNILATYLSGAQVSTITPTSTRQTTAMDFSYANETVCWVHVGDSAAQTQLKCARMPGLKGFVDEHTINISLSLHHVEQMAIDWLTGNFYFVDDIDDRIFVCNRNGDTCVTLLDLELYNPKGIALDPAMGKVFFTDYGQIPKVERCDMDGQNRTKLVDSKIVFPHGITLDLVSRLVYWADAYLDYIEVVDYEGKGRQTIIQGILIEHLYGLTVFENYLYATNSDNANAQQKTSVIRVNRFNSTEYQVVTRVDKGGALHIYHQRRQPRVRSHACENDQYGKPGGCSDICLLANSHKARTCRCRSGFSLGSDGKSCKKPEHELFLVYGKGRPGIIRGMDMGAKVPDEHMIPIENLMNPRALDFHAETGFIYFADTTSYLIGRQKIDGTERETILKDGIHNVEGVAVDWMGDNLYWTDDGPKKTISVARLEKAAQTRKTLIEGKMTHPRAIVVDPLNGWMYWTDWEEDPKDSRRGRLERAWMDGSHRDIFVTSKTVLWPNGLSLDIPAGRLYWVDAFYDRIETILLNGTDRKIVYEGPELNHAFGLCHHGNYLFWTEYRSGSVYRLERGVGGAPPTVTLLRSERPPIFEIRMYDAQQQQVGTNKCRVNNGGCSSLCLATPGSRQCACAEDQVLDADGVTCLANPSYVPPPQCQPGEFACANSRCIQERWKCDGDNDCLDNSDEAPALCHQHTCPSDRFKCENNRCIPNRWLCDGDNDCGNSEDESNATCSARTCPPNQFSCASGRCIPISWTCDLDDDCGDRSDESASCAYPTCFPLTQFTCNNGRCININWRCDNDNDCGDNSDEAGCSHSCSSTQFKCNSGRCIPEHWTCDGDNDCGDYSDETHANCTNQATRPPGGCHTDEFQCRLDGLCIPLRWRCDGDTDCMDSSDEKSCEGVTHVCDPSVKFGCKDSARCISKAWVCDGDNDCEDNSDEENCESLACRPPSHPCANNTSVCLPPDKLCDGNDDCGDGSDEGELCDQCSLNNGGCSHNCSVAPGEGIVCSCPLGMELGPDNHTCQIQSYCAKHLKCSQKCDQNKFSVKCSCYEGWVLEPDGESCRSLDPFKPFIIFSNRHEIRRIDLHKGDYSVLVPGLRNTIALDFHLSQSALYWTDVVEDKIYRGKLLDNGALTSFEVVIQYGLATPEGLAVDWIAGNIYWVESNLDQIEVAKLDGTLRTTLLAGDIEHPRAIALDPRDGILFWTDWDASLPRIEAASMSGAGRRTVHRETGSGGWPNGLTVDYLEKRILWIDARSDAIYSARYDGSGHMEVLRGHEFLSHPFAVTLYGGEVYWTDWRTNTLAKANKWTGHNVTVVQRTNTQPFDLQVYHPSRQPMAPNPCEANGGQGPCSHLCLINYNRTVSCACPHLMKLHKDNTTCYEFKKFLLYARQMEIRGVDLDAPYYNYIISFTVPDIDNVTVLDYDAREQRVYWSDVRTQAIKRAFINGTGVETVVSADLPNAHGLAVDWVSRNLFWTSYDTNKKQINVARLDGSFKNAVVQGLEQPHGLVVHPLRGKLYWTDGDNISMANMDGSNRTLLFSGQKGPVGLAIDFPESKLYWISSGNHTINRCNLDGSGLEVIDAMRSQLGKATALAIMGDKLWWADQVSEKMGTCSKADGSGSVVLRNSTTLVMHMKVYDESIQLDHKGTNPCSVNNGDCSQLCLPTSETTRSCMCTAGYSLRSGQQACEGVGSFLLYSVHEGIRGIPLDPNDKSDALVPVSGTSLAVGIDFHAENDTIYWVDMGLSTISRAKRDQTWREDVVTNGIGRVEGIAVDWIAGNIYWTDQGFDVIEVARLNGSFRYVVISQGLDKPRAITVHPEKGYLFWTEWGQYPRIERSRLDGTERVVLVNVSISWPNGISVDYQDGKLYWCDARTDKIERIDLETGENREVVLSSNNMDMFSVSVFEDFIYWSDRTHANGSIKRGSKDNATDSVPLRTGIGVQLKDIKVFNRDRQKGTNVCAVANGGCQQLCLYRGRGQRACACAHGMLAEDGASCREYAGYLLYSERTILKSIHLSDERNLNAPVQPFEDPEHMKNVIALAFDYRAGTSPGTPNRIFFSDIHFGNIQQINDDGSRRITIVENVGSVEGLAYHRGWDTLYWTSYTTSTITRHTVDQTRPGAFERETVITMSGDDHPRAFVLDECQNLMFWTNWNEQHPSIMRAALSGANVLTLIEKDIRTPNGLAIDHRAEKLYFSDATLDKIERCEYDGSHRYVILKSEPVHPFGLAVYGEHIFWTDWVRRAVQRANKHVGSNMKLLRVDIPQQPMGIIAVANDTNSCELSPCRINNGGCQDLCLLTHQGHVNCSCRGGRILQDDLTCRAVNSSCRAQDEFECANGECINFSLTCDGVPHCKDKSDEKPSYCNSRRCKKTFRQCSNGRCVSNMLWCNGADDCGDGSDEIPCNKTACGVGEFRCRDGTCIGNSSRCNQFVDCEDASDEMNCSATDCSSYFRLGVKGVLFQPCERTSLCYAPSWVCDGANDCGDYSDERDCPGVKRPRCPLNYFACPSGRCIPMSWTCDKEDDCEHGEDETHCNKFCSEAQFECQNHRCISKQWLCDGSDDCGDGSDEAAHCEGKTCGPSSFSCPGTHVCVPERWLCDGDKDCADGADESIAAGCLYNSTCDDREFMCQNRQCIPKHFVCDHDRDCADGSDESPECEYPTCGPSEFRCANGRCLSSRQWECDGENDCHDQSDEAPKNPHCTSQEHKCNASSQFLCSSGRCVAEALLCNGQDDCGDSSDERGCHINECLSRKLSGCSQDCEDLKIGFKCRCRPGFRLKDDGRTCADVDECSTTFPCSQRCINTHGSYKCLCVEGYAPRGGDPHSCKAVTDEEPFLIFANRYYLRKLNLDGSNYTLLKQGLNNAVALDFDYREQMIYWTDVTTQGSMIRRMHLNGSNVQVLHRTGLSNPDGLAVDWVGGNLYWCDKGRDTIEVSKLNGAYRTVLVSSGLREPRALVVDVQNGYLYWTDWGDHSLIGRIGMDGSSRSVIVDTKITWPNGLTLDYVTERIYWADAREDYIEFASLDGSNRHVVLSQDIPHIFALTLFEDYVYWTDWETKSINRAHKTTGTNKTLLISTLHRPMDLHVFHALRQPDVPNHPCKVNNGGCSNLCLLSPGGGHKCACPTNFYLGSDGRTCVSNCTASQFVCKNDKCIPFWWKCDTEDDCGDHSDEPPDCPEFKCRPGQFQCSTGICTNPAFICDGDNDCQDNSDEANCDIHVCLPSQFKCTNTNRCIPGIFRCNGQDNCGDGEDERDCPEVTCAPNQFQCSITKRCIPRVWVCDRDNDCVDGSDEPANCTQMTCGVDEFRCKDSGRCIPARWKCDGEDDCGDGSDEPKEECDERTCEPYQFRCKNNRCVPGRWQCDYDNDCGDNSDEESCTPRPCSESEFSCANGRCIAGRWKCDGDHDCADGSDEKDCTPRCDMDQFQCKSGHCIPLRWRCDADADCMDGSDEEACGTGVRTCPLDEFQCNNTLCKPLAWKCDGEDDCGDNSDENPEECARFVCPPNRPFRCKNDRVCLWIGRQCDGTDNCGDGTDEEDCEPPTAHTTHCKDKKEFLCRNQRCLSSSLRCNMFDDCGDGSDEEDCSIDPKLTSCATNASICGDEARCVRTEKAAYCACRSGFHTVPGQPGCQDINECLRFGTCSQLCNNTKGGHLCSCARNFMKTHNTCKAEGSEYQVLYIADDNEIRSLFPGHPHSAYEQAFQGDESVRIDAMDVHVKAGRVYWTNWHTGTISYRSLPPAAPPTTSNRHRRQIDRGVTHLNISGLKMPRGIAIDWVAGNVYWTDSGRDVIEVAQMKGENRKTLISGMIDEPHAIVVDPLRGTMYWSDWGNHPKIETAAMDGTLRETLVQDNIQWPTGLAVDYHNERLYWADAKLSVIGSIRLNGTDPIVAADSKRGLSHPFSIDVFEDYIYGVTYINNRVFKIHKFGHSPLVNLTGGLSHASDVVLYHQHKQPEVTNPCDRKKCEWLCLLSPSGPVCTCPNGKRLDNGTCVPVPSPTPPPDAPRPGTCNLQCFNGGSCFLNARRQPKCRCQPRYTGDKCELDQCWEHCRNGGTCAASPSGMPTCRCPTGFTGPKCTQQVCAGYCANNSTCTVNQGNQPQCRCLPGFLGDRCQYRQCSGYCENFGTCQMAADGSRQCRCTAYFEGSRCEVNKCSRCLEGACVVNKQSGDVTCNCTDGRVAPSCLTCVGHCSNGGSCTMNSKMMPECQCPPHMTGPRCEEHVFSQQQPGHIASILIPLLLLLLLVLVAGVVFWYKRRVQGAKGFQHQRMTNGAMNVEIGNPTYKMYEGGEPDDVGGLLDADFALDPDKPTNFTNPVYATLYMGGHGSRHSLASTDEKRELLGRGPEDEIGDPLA
Assay: SPR, BIAcore 3000, one-site model, KD = koff/kon
Catalogue of binders with associated pKd
Scale explanation: pKd corresponds to minus log10 of a concentration expressed in moles per litre.

- BINDER: "recombinant A2 mutant #17 (Lys-510 to Ala) (other, hx-A2 form from Sf9 cells; not shown: N-terminal hx leader (6xHis tag, vector-derived linker, factor Xa site)) SGAKKHPKTWVHYIAAEEEDWDYAPLVLAPDDRSYKSQYLNNGPQRIGRKYKKVRFMAYTDETFKTREAIQHESGILGPLLYGEVGDTLLIIFKNQASRPYNIYPHGITDVRPLYSRRLPKGVKHLKDFPILPGEIFAYKWTVTVEDGPTKSDPRCLTRYYSSFVNMERDLASGLIGPLLICYKESVDQRGNQIMSDKRNVILFSVFDENRSWYLTENIQRFLPNPAGVQLEDPEFQASNIMHSINGYVFDSLQLSVCLHEVAYWYILSIGAQTDFLSVFFSGYTFKHKMVYEDTLTLFPFSGETVFMSMENPGLWILGCHNSDFRNRGMTALLKVSSCDKNTGDYYEDSYEDISAYLLSKNNAIEPR"
  OBS_VALUE: 7.54

Please turn your attention to the following entry.
Q: // lookup pKd for recombinant A2 mutant #1 (Lys-376 to Ala) (other, hx-A2 form from Sf9 cells; not shown: N-terminal hx leader (6xHis tag, vector-derived linker, factor Xa site)) SGAAKHPKTWVHYIAAEEEDWDYAPLVLAPDDRSYKSQYLNNGPQRIGRKYKKVRFMAYTDETFKTREAIQHESGILGPLLYGEVGDTLLIIFKNQASRPYNIYPHGITDVRPLYSRRLPKGVKHLKDFPILPGEIFKYKWTVTVEDGPTKSDPRCLTRYYSSFVNMERDLASGLIGPLLICYKESVDQRGNQIMSDKRNVILFSVFDENRSWYLTENIQRFLPNPAGVQLEDPEFQASNIMHSINGYVFDSLQLSVCLHEVAYWYILSIGAQTDFLSVFFSGYTFKHKMVYEDTLTLFPFSGETVFMSMENPGLWILGCHNSDFRNRGMTALLKVSSCDKNTGDYYEDSYEDISAYLLSKNNAIEPR
Ans: 7.59
